Target: T1, macaca fascicularis (mf) PRLR.mmh (soluble monomeric monkey PRLR) (Macaca fascicularis)
T1 construct: called soluble monomeric PRLR protein
T1 chain: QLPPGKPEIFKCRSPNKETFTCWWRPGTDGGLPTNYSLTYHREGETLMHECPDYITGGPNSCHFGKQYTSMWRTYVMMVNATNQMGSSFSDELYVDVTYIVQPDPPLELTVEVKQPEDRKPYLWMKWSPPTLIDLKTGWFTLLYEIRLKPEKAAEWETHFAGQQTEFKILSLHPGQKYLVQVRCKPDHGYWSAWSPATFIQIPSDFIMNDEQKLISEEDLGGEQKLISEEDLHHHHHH
Test: SPR Biacore, 25 C, mAb capture
Please provide measured Kd for the entries that follow.
Give bare numbers, in nM.

Past entries and their recorded results:
H1H6795P (antibody, human IgG1, V domains shown, Human IgG1 Fc (H1H)) VH: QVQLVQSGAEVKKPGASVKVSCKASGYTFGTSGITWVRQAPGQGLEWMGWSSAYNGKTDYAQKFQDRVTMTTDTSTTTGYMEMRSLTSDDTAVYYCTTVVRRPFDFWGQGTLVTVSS VL: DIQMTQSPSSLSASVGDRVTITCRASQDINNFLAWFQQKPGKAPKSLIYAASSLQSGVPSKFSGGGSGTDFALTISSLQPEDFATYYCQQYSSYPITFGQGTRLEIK | 2.33
H1H6762P (antibody, human IgG1, V domains shown, Human IgG1 Fc (H1H)) VH: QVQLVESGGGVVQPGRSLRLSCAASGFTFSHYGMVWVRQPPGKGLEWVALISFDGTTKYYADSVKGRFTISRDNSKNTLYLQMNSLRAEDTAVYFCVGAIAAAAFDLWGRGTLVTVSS VL: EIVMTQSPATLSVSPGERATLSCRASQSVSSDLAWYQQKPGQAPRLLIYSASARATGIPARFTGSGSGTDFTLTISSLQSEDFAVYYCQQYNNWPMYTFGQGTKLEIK | 0.511

Pending binder:
Exercise: Field request: Kd | item: H1H6959N2 (antibody, human IgG1, V domains shown, Tested with human IgG1 Fc (H1H); also called H2M6959N2) VH: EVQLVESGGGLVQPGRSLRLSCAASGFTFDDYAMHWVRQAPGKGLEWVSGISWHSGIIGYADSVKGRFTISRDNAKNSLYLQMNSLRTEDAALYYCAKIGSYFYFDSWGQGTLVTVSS VL: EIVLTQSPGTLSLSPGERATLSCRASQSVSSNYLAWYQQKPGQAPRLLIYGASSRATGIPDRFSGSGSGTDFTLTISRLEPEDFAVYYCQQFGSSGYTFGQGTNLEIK
Key: 129
